# Test details: UV-Vis absorption and fluorescence spectroscopy (spectral properties in aqueous media / PBS buffer)
# Assay type: physicochemical
# Condition details: aqueous media
Parameter measured: Stokes Shift (nm)

Smiles code	Parameter measured	Test value
C#Cc1cccc(Nc2ncnc3ccc(NC(=O)CCNC(=O)c4ccc(C5=C6C=C/C(=[N+](/C)CCCS(=O)(=O)[O-])C=C6[Si](C)(C)c6cc(N(C)C)ccc65)c(C)c4)cc23)c1	Stokes Shift (nm)	17
Cc1ccccc1C1=C2C=C/C(=[N+](/C)CCCS(=O)(=O)[O-])C=C2[Si](C)(C)c2cc(N(C)C)ccc21	Stokes Shift (nm)	19
C#Cc1cccc(Nc2ncnc3ccc(NC(=O)CCNC(=O)c4ccc(C(=O)[O-])c(C5=C6C=CC(=[N+](C)C)C=C6[Si](C)(C)c6cc(N(C)C)ccc65)c4)cc23)c1	Stokes Shift (nm)	22

* * *

# Test details: UV-Vis absorption and fluorescence spectroscopy (spectral properties in aqueous media / PBS buffer)
# Assay type: physicochemical
# Condition details: aqueous media; emission maximum
Parameter measured: λem (nm)

>>> df
                                smiles_code  unit  test_value
0  Cc1ccccc1C1=C2C=C/C(=[N+](/C)CCCS(=O)(=O)[O-])C=C2[Si](C)(C)c2cc(N(C)C)ccc21    nm         668
1  CN(C)c1ccc2c(c1)[Si](C)(C)C1=CC(=[N+](C)C)C=CC1=C2c1cc(C(=O)NCCOCCOCCCCCCCl)ccc1C(=O)[O-]    nm         664
2  Cc1cc(C(=O)NCc2ccc(COc3nc(N)nc4[nH]cnc34)cc2)ccc1-c1c2cc/c(=[N+](/C)CCCS(=O)(=O)[O-])cc-2oc2cc(N(C)C)ccc12    nm         580
3  CN(C)c1ccc2c(c1)[Si](C)(C)C1=CC(=[N+](C)C)C=CC1=C2c1cc(C(=O)O)ccc1C(=O)[O-]    nm         667
4  Cc1cc(C(=O)O)ccc1-c1c2cc/c(=[N+](/C)CCCS(=O)(=O)[O-])cc-2oc2cc(N(C)C)ccc12    nm         578
5  C#Cc1cccc(Nc2ncnc3ccc(NC(=O)CCNC(=O)c4ccc(C(=O)[O-])c(C5=C6C=CC(=[N+](C)C)C=C6[Si](C)(C)c6cc(N(C)C)ccc65)c4)cc23)c1    nm         678

* * *

# Test details: UV-Vis absorption and fluorescence spectroscopy (spectral properties in aqueous media / PBS buffer)
# Type: physicochemical
# Condition details: aqueous media
Mark condition met only for Stokes Shift (nm) values smaller than 20 nm; exact matches and larger values are condition not met.

>>> print(df.to_string())
                                smiles_code        group_label
0  C#Cc1cccc(Nc2ncnc3ccc(NC(=O)CCNC(=O)c4ccc(C(=O)[O-])c(-c5c6ccc(=[N+](C)C)cc-6oc6cc(N(C)C)ccc56)c4)cc23)c1  condition not met
1  CN(C)c1ccc2c(c1)[Si](C)(C)C1=CC(=[N+](C)C)C=CC1=C2c1cc(C(=O)NCCOCCOCCCCCCCl)ccc1C(=O)[O-]      condition met
2  C#Cc1cccc(Nc2ncnc3ccc(NC(=O)CCNC(=O)c4ccc(-c5c6cc/c(=[N+](/C)CCCS(=O)(=O)[O-])cc-6oc6cc(N(C)C)ccc56)c(C)c4)cc23)c1      condition met
3  Cc1cc(C(=O)NCc2ccc(COc3nc(N)nc4[nH]cnc34)cc2)ccc1-c1c2cc/c(=[N+](/C)CCCS(=O)(=O)[O-])cc-2oc2cc(N(C)C)ccc12  condition not met
4  CN(C)c1ccc2c(-c3cc(C(=O)O)ccc3C(=O)[O-])c3ccc(=[N+](C)C)cc-3oc2c1  condition not met
5  Cc1cc(C(=O)[O-])ccc1C1=C2C=C/C(=[N+](/C)CCCS(=O)(=O)O)C=C2[Si](C)(C)c2cc(N(C)C)ccc21  condition not met
6  Cc1cc(C(=O)O)ccc1-c1c2cc/c(=[N+](/C)CCCS(=O)(=O)[O-])cc-2oc2cc(N(C)C)ccc12  condition not met
7  CN(C)c1ccc2c(c1)[Si](C)(C)C1=CC(=[N+](C)C)C=CC1=C2c1cc(C(=O)NCCCn2cc(-c3cccc(Nc4ncnc5ccccc45)c3)nn2)ccc1C(=O)[O-]      condition met

Data provenance is patent US20230287217A1.
